Exercise: for every item that follows, state its recorded fold difference in affinity vs original.
biological target: binding partner (antigen) of C5A (XPA23); test: Biacore, K-off, fold vs original
Numbers only, in fold.

binder | fold difference in affinity vs original (fold)
C5A (XPA23) VH P53W (antibody, V domains shown) VH: EVQLLESGGGLVQPGGSLRLSCAASGFTFSKYFMFWVRQAPGKGLEWVSVISWSGGMTRYADSVKGRFTISRDNSKNTLYLQMNSLRAEDTAVYYCARVGYGGNSDYWGQGTLVTVSS VL: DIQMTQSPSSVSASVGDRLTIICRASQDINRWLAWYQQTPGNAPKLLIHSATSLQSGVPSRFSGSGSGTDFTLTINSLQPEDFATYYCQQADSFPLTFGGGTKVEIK | 0.05
C5A (XPA23) VH I51G (antibody, V domains shown) VH: EVQLLESGGGLVQPGGSLRLSCAASGFTFSKYFMFWVRQAPGKGLEWVSVGSPSGGMTRYADSVKGRFTISRDNSKNTLYLQMNSLRAEDTAVYYCARVGYGGNSDYWGQGTLVTVSS VL: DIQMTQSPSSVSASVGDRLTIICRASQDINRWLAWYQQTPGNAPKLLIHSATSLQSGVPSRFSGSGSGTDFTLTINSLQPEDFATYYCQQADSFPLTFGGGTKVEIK | 0.94
C5A (XPA23) VH S52A (antibody, V domains shown) VH: EVQLLESGGGLVQPGGSLRLSCAASGFTFSKYFMFWVRQAPGKGLEWVSVIAPSGGMTRYADSVKGRFTISRDNSKNTLYLQMNSLRAEDTAVYYCARVGYGGNSDYWGQGTLVTVSS VL: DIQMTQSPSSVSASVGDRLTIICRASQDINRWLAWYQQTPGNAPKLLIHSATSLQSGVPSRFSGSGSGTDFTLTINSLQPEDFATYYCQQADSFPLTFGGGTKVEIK | 0.05
C5A (XPA23) VH M57A (antibody, V domains shown) VH: EVQLLESGGGLVQPGGSLRLSCAASGFTFSKYFMFWVRQAPGKGLEWVSVISPSGGATRYADSVKGRFTISRDNSKNTLYLQMNSLRAEDTAVYYCARVGYGGNSDYWGQGTLVTVSS VL: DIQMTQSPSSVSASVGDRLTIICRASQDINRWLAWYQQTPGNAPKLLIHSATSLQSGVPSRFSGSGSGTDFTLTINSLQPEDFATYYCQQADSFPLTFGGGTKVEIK | 0.03

// for each binder below, give its fold difference in affinity vs original
1. C5A (XPA23) VH V50G (antibody, V domains shown) VH: EVQLLESGGGLVQPGGSLRLSCAASGFTFSKYFMFWVRQAPGKGLEWVSGISPSGGMTRYADSVKGRFTISRDNSKNTLYLQMNSLRAEDTAVYYCARVGYGGNSDYWGQGTLVTVSS VL: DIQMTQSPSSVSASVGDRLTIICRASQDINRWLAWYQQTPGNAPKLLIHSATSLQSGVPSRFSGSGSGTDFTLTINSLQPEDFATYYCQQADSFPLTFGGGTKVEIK
2. C5A (XPA23) VH R59P (antibody, V domains shown) VH: EVQLLESGGGLVQPGGSLRLSCAASGFTFSKYFMFWVRQAPGKGLEWVSVISPSGGMTPYADSVKGRFTISRDNSKNTLYLQMNSLRAEDTAVYYCARVGYGGNSDYWGQGTLVTVSS VL: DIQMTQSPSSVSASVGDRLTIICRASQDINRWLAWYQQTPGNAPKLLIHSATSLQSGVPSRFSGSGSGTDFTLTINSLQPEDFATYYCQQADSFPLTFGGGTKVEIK

[0.03, 0.07]

// for each binder below, give its fold difference in affinity vs original
1. C5A (XPA23) VH T58V (antibody, V domains shown) VH: EVQLLESGGGLVQPGGSLRLSCAASGFTFSKYFMFWVRQAPGKGLEWVSVISPSGGMVRYADSVKGRFTISRDNSKNTLYLQMNSLRAEDTAVYYCARVGYGGNSDYWGQGTLVTVSS VL: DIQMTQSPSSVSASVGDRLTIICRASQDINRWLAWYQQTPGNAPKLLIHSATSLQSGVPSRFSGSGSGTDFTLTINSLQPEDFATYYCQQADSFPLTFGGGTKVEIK
2. C5A (XPA23) VH Y107P (antibody, V domains shown) VH: EVQLLESGGGLVQPGGSLRLSCAASGFTFSKYFMFWVRQAPGKGLEWVSVISPSGGMTRYADSVKGRFTISRDNSKNTLYLQMNSLRAEDTAVYYCARVGYGGNSDPWGQGTLVTVSS VL: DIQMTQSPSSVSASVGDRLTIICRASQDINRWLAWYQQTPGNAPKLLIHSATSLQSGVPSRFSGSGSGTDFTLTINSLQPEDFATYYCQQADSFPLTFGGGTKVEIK

0.99
0.04

// for each binder below, give its fold difference in affinity vs original
1. C5A (XPA23) VH R59G (antibody, V domains shown) VH: EVQLLESGGGLVQPGGSLRLSCAASGFTFSKYFMFWVRQAPGKGLEWVSVISPSGGMTGYADSVKGRFTISRDNSKNTLYLQMNSLRAEDTAVYYCARVGYGGNSDYWGQGTLVTVSS VL: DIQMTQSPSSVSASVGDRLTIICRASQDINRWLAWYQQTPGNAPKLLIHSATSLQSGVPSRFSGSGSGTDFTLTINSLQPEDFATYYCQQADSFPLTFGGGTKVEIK
2. C5A (XPA23) VH F35I (antibody, V domains shown) VH: EVQLLESGGGLVQPGGSLRLSCAASGFTFSKYFMIWVRQAPGKGLEWVSVISPSGGMTRYADSVKGRFTISRDNSKNTLYLQMNSLRAEDTAVYYCARVGYGGNSDYWGQGTLVTVSS VL: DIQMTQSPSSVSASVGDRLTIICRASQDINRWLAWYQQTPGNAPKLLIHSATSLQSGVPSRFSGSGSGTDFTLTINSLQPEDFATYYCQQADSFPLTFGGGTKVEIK

1.04
0.85
